- Measured Target: baculovirus-expressed ALK (Homo sapiens)
- Construct: host or cells: baculovirus expression system
- Sequence (Q9UM73 19-1620): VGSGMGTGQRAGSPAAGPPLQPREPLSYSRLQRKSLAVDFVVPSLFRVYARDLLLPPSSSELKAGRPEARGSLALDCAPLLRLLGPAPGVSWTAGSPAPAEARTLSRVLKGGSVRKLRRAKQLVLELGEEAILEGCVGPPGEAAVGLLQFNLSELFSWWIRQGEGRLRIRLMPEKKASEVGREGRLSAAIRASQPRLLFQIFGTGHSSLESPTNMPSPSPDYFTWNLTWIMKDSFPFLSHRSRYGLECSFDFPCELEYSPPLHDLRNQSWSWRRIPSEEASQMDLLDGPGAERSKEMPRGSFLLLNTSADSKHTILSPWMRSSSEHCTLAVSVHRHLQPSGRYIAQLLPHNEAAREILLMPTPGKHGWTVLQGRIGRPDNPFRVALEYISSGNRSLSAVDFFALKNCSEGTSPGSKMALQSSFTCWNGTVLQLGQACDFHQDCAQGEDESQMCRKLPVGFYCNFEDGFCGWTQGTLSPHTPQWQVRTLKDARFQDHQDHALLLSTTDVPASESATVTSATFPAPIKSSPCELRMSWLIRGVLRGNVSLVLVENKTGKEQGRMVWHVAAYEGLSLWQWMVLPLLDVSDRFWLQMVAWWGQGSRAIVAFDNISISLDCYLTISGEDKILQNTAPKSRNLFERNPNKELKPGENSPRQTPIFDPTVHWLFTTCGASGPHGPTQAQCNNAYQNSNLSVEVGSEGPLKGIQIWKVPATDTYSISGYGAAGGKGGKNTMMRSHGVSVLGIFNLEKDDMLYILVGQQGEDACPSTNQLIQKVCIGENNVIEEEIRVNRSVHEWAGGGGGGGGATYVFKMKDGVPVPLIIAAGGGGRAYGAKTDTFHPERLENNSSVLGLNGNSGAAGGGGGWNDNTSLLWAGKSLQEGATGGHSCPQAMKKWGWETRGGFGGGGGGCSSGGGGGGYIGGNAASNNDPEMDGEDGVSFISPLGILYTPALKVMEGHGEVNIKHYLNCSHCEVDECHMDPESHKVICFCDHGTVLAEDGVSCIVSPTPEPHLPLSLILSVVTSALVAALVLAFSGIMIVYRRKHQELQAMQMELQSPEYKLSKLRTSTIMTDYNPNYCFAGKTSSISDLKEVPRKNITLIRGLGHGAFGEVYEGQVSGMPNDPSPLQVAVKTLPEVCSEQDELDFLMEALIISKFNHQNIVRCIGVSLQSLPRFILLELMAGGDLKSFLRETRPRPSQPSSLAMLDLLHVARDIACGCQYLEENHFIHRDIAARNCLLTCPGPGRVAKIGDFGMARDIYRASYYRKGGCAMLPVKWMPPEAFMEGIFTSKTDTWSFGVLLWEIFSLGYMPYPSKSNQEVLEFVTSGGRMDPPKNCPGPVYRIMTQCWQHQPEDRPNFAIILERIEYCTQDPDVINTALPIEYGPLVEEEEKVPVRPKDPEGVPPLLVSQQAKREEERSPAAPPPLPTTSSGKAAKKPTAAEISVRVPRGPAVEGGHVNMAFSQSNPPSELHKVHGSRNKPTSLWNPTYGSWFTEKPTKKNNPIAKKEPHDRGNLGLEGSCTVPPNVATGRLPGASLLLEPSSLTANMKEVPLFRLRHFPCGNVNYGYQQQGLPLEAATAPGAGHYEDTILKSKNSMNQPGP
- Protocol: ALK Kinase Assay (ELISA-type, time-resolved fluorescence)
- Type: biochemical
- Conditions Used: 1 μM ATP (Km level), 30 ng/ml ALK, 37° C., 15 minutes; read-out: ALK Activity (ALK kinase inhibition, IC50 class)
Property Label: IC50

> print(dat)
                                    compound   endpoint.result
 1  CCN1C(=O)CCCc2ccc(Nc3ncc(Cl)c(Nc4ccccc4OCC#N)n3)cc21          < 100 nM
 2  COCCN1CCc2ccc(Nc3ncc(Cl)c(Nc4ccccc4Cl)n3)cc2CC1          < 100 nM
 3  COc1cccnc1-c1ccccc1Nc1nc(Nc2ccc3c(c2)CCC(N2CCOCC2)CC3)ncc1Cl (stereo not drawn)          < 100 nM
 4  COc1cc2c(cc1Nc1ncc(Cl)c(Nc3ccccc3S(=O)(=O)N(C)C)n1)CCN(Cc1nccn1C)CC2          < 100 nM
 5  CCN1C(=O)CCCc2cc(Nc3ncc(Cl)c(Nc4ccccc4-n4cccn4)n3)c(OC)cc21          < 100 nM
 6  COCCN1CCc2ccc(Nc3ncc(Cl)c(Nc4c(OC)cccc4C(=O)NCCC#N)n3)cc2CC1  1000 to 10000 nM
 7  CC1(C)CCC(=O)Nc2cc(Nc3ncc(Cl)c(N[C@H]4[C@@H](C(N)=O)[C@@H]5C=C[C@H]4C5)n3)ccc21          < 100 nM
 8  COc1ccc2c(c1Nc1ncc(Cl)c(Nc3ccccc3S(=O)(=O)N(C)C)n1)CCC(NCC(F)F)CC2 (stereo not drawn)    100 to 1000 nM
 9  COc1cc2c(cc1Nc1ncc(Cl)c(Nc3cccnc3OC)n1)CCN(CC(=O)N(C)C)CC2          < 100 nM
10  COc1cc2c(cc1Nc1ncc(Cl)c(Nc3ccccc3S(=O)(=O)N3CC[C@H](O)C3)n1)CCN(CC(=O)N(C)C)CC2          < 100 nM
11  CNC(=O)c1cc(N(C)C)ccc1Nc1nc(Nc2ccc3c(c2)NC(=O)CCC3)ncc1Cl    100 to 1000 nM
12  COc1cc(N(C)C)ccc1Nc1nc(Nc2ccc3c(c2)C(C)(C)CCC(=O)N3C)ncc1Cl          < 100 nM
13  CCN1C(=O)C(N)CCc2c1ccc(Nc1ncc(Cl)c(N[C@@H]3CCCC[C@H]3NS(C)(=O)=O)n1)c2OC (stereo partly drawn)    100 to 1000 nM
14  COc1cc2c(cc1Nc1ncc(Cl)c(Nc3ccc(N(C)C)cc3OC)n1)CCN(Cc1ncco1)CC2          < 100 nM
15  COc1cc2c(cc1Nc1ncc(Cl)c(Nc3ccccc3S(=O)(=O)N(C)C)n1)CCN(CCN1CCOCC1)C(=O)C2          < 100 nM

---

- Measured Target: c-Met (cytoplasmic domain) (Homo sapiens, UniProt P08581)
- Construct: 10 ng/mL c-Met (cytoplasmic domain, Invitrogen Corporation #PV3143); purchased Invitrogen Corporation PV3143
- Sequence (P08581 956-1390 limits assumed): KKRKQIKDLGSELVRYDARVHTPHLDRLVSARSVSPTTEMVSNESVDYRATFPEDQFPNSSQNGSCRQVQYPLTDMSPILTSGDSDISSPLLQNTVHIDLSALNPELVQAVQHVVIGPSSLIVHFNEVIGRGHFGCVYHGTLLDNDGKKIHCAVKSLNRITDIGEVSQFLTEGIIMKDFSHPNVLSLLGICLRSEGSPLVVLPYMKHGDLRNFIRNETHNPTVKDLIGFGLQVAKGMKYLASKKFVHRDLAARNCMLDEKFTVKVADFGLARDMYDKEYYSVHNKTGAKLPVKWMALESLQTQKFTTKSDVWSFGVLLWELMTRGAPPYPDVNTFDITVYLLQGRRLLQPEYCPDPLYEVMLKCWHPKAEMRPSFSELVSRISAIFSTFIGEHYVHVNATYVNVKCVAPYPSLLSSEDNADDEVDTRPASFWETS
- Protocol: c-Met Kinase Assay (same methods as for ALK, with modifications)
- Format: biochemical
- Conditions Used: 1 μM ATP (Km level); read-out: cMet Activity (c-Met Kinase Inhibition, IC50)
Property Label: IC50

Compound	Property Label	Endpoint Result
COc1c(Nc2ncc(Cl)c(Nc3ccccc3S(=O)(=O)C(C)C)n2)ccc2c1CCC(N1CCOCC1)CC2 (stereo not shown) [Example 883]	IC50	1 to 10 µM
Cc1ccc(-c2ccccc2Nc2nc(Nc3ccc4c(c3)C(C)(C)CCC(=O)N4)ncc2Cl)nc1 [Example 1003]	IC50	> 10 µM
CNC(=O)c1ccccc1Nc1nc(Nc2ccc3c(c2OC)CCC(N2CCOCC2)CC3)ncc1Cl (racemic) [Example 915]	IC50	1 to 10 µM
COc1cc(N2CCOCC2)ccc1Nc1nc(Nc2ccc3c(c2)CCC(NCC(F)F)CC3)ncc1Cl (stereo not shown) [Example 659]	IC50	> 10 µM
COc1cc2c(cc1Nc1ncc(Cl)c(Nc3ccc(N4CCN(C)CC4)cc3OC)n1)CCN(CCS(C)(=O)=O)CC2 [Example 771]	IC50	> 10 µM
COCCOC(=O)C1[C@@H]2C=C[C@@H](C2)[C@H]1Nc1nc(Nc2ccc3c(c2OC)CC[C@@H](N2CCOCC2)CC3)ncc1Cl (single isomer, unassigned) [Example 905]	IC50	> 10 µM
COc1c(Nc2ncc(Cl)c(Nc3ccccc3S(=O)(=O)N3CCC(O)C3)n2)ccc2c1CCC(N1CCOCC1)CC2 (mixture of isomers) [Example 906]	IC50	1 to 10 µM
CC1(C)CCCOc2c(Nc3ncc(Cl)c(N[C@@H]4CCCC[C@H]4NS(C)(=O)=O)n3)cccc21 [Example 875]	IC50	> 10 µM
COc1c(Nc2ncc(Cl)c(Nc3ccccc3S(=O)(=O)N(C)C)n2)ccc2c1CCC(NCC(F)F)CC2 (stereo not shown) [Example 683]	IC50	> 10 µM
CNC(=O)c1ccccc1Nc1nc(Nc2cc3c(cc2OC)CCN(CC(C)(F)F)CC3)ncc1Cl [Example 786]	IC50	> 10 µM
CCN1CCOc2cc(Nc3ncc(Cl)c(Nc4ccccc4C(=O)NC)n3)ccc2C1=O [Example 515]	IC50	< 0.1 µM
COc1cc2c(cc1Nc1ncc(Cl)c(Nc3ccc(N4CCC(N5CCN(C)CC5)CC4)cc3OC)n1)CCN(CC(=O)N(C)C)CC2 [Example 819]	IC50	> 10 µM
COc1cc2c(cc1Nc1ncc(Cl)c(Nc3ccc(Cl)cc3S(=O)(=O)N(C)C)n1)CCN(CC(=O)N1CCOCC1)CC2 [Example 841]	IC50	> 10 µM
CCN1CCN(CC)c2cc(Nc3ncc(Cl)c(Nc4ccc5c(c4)N(CC)CCN(CC)C5=O)n3)ccc2C1 [Example 722]	IC50	> 10 µM
CC1(C)CCC(=O)Nc2cc(Nc3ncc(Cl)c(Nc4c(F)cccc4OCC#N)n3)ccc21 [Example 930]	IC50	< 0.1 µM
COc1cc2c(cc1Nc1ncc(Cl)c(Nc3ccc(N4CCOCC4)cc3-n3cccn3)n1)CCN(CC(=O)N(C)C)CC2 [Example 626]	IC50	> 10 µM
COc1cc2c(cc1Nc1ncc(Cl)c(Nc3ccc(N4CCN(C)CC4)cc3C)n1)CCN(CC(=O)N(C)C)CC2 [Example 802]	IC50	> 10 µM
COCC(COC)N1CCc2cc(Nc3ncc(Cl)c(Nc4ccc(Cl)cc4S(=O)(=O)N(C)C)n3)c(OC)cc2CC1 [Example 838]	IC50	> 10 µM
COCCN1CCOc2ccc(Nc3ncc(Cl)c(N[C@@H]4CCCC[C@H]4NS(C)(=O)=O)n3)cc2C1 [Example 711]	IC50	0.1 to 1 µM
CCN1CCc2cc(Nc3ncc(Cl)c(Nc4ccc(N5CCN(C)CC5)cc4OC)n3)c(OC)cc2CC1=O [Example 772]	IC50	> 10 µM
COCCOC(=O)C1[C@@H]2C=C[C@@H](C2)[C@H]1Nc1nc(Nc2ccc3c(c2OC)CC[C@@H](N2CCOCC2)CC3)ncc1Cl (single isomer, unassigned) [Example 904]	IC50	> 10 µM
COc1ccccc1Nc1nc(Nc2ccc3c(c2)CCC(N2CCN(C)CC2)CC3)ncc1Cl (stereo not shown) [Example 891]	IC50	1 to 10 µM
COc1c(Nc2ncc(Cl)c(Nc3ccccc3S(=O)(=O)N(C)C)n2)ccc2c1CCC(N1CCOCC1)CC2 (stereo not shown) [Example 889]	IC50	1 to 10 µM
CNC(=O)c1ccccc1Nc1nc(Nc2ccc3c(c2)CCC(NCC(F)(F)F)CC3)ncc1Cl (stereo not shown) [Example 651]	IC50	< 0.1 µM
C#CCNC(=O)c1cccc(F)c1Nc1nc(Nc2ccc3c(c2)CCN(C(=O)C2COCCO2)CC3)ncc1Cl (stereo not shown) [Example 640]	IC50	< 0.1 µM
COCCN1CCc2ccc(Nc3ncc(Cl)c(Nc4ccccc4-c4nccs4)n3)cc2CC1 [Example 979]	IC50	0.1 to 1 µM
COc1cc(N2CCN(C)CC2)ccc1Nc1nc(Nc2cccc3c2OCCCC3(C)C)ncc1Cl [Example 872]	IC50	> 10 µM
CN1C(=O)CCCc2cc(Nc3ncc(Cl)c(Nc4ccccc4-c4nc(C(F)(F)F)c[nH]4)n3)ccc21 [Example 1013]	IC50	1 to 10 µM
